# EXPERIMENTAL TARGET: human Prostaglandin D Synthase (GST2) (Homo sapiens)
# Construct: the open reading frame of human Prostaglandin D Synthase was amplified from cDNA; made in house; host or cells: E. coli TOP10F'
# ASSAY EXPLANATION: Homogeneous biochemical assay of human Prostaglandin D Synthase (GST2) based on its glutathion-S-transferase activity (GSH conjugation to monochlorobimane, fluorescence)
# CONDITION INFO: Table 2; comparative examples; read-out: GST2 inhibition IC50
pIC50: −log10 of the molar value.
Each entry below carries its reported pIC50.
ENDPOINT: pIC50

[
  {
    "COMPOUND": "O=C(Nc1ccc(F)nc1)c1cccc(C(=O)N2CCN(C(=O)Nc3ccc(F)cc3)CC2)c1 [Compound XVIII, reference compound]",
    "OBS VALUE": 4.71
  },
  {
    "COMPOUND": "COC(=O)c1ccccc1C(=O)N1CCN(C(=O)Nc2ccc(F)cc2)CC1 [XIII, reference compound]",
    "OBS VALUE": 4.55
  },
  {
    "COMPOUND": "O=C(Nc1ccc(F)cc1)N1CCN(C(=O)c2ccccc2Oc2ccccc2)CC1 [XIV, reference compound]",
    "OBS VALUE": 3.74
  },
  {
    "COMPOUND": "O=C(Nc1ccc(F)cc1)N1CCN(C(=O)c2cccc(NS(=O)(=O)c3ccccc3)c2)CC1 [Compound XX, reference compound]",
    "OBS VALUE": 4.71
  },
  {
    "COMPOUND": "NC(=O)c1ccccc1C(=O)N1CCN(C(=O)Nc2ccc(F)cc2)CC1 [Compound XXI, reference compound]",
    "OBS VALUE": 4.78
  }
]

----------
# EXPERIMENTAL TARGET: PPARγ (h) (Homo sapiens)
# Construct: host or cells: E. coli
# Sequence (P37231 1-505): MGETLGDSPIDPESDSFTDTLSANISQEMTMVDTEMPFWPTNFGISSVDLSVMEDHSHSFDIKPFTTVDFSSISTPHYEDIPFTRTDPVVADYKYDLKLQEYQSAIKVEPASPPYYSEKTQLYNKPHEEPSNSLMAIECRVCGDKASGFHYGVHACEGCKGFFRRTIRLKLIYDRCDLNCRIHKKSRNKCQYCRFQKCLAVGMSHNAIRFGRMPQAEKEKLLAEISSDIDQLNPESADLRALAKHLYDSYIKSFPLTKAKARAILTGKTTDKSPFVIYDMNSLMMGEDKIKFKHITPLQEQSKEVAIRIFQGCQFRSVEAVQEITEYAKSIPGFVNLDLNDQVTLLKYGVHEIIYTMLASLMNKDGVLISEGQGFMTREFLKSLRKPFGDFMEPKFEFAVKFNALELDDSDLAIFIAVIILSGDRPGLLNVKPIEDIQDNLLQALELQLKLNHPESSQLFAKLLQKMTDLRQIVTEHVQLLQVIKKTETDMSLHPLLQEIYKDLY
# ASSAY EXPLANATION: PPARγ receptor binding assay ([3H]rosiglitazone)
# CONDITION INFO: Table 3; [3H]rosiglitazone 10 nM, human recombinant
Reported PPARγ (% Inhibition of Control Specific Binding) values for the following molecules.
ENDPOINT: PPARγ (% Inhibition of Control Specific Binding)

[
  {
    "MOLECULE": "O=C(Nc1ccc(N2CCN(C(=O)OC3CCOC3)CC2)c(F)c1)N1CCN(C(=O)c2cccc(F)c2)CC1 (racemic)",
    "OBS VALUE": "15%"
  },
  {
    "MOLECULE": "Cc1nc(-c2cccc(NC(=O)N3CCN(C(=O)c4cccc(F)c4)CC3)c2)no1",
    "OBS VALUE": "16%"
  },
  {
    "MOLECULE": "O=C(Nc1nc(-c2ccccc2)cs1)N1CCN(C(=O)c2cccc(F)c2)CC1",
    "OBS VALUE": "−22%"
  },
  {
    "MOLECULE": "O=C(Nc1ccc(C(F)(F)F)cc1)N1CCN(C(=O)c2cccc(F)n2)CC1",
    "OBS VALUE": "1%"
  },
  {
    "MOLECULE": "Cn1cnnc1-c1cccc(NC(=O)N2CCN(C(=O)c3cccc(F)c3)CC2)c1",
    "OBS VALUE": "20%"
  }
]

----------
# EXPERIMENTAL TARGET: human Prostaglandin D Synthase (GST2) (Homo sapiens, UniProt O60760)
# Construct: the open reading frame of human Prostaglandin D Synthase was amplified from cDNA; made in house; host or cells: E. coli TOP10F'
# Sequence (O60760 whole entry): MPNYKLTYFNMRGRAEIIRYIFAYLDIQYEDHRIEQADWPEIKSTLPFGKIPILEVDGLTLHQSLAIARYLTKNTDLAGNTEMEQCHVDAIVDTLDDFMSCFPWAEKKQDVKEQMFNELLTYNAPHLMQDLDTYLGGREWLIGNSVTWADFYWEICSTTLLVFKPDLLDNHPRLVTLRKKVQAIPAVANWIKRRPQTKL
# ASSAY EXPLANATION: Homogeneous biochemical assay of human Prostaglandin D Synthase (GST2) based on its glutathion-S-transferase activity (GSH conjugation to monochlorobimane, fluorescence)
# CONDITION INFO: given beside the compound name in Examples 1 to 167; read-out: Potency Range (GST2 IC50)
pIC50: −log10 of the molar value.

[
  {
    "COMPOUND": "O=C(Nc1ccc(NC(=O)N2CCN(C(=O)c3cccc(F)c3)CC2)cc1)c1ccccn1 [Compound 114]",
    "pIC50": "7.00 to 7.96"
  },
  {
    "COMPOUND": "O=C(Nc1ccc(C(F)(F)F)cc1)N1CCN(C(=O)c2cccc(F)n2)CC1 [Compound 22]",
    "pIC50": "6.00 to 7.00"
  },
  {
    "COMPOUND": "O=C(Nc1ccc(NC(=O)N2CCN(C(=O)c3cccc(F)c3)CC2)cc1)c1cccnc1 [Compound 122]",
    "pIC50": "6.00 to 7.00"
  },
  {
    "COMPOUND": "CC(=O)N1CCN(c2ccc(NC(=O)N3CCN(C(=O)c4cccc(F)c4)CC3)cc2)CC1 [Compound 61]",
    "pIC50": "6.00 to 7.00"
  },
  {
    "COMPOUND": "NC(=O)c1cccc(NC(=O)N2CCN(C(=O)c3cccc(F)c3)CC2)c1 [Compound 158]",
    "pIC50": "6.00 to 7.00"
  },
  {
    "COMPOUND": "CC(C)(C)c1ccc(NC(=S)N2CCN(C(=O)c3ccccc3)CC2)cc1 [Compound 1]",
    "pIC50": "8.00 to 9.00"
  }
]

----------
# EXPERIMENTAL TARGET: K+ATP channel (Rattus norvegicus, UniProt Q09429)
# Sequence (Q09429 whole entry): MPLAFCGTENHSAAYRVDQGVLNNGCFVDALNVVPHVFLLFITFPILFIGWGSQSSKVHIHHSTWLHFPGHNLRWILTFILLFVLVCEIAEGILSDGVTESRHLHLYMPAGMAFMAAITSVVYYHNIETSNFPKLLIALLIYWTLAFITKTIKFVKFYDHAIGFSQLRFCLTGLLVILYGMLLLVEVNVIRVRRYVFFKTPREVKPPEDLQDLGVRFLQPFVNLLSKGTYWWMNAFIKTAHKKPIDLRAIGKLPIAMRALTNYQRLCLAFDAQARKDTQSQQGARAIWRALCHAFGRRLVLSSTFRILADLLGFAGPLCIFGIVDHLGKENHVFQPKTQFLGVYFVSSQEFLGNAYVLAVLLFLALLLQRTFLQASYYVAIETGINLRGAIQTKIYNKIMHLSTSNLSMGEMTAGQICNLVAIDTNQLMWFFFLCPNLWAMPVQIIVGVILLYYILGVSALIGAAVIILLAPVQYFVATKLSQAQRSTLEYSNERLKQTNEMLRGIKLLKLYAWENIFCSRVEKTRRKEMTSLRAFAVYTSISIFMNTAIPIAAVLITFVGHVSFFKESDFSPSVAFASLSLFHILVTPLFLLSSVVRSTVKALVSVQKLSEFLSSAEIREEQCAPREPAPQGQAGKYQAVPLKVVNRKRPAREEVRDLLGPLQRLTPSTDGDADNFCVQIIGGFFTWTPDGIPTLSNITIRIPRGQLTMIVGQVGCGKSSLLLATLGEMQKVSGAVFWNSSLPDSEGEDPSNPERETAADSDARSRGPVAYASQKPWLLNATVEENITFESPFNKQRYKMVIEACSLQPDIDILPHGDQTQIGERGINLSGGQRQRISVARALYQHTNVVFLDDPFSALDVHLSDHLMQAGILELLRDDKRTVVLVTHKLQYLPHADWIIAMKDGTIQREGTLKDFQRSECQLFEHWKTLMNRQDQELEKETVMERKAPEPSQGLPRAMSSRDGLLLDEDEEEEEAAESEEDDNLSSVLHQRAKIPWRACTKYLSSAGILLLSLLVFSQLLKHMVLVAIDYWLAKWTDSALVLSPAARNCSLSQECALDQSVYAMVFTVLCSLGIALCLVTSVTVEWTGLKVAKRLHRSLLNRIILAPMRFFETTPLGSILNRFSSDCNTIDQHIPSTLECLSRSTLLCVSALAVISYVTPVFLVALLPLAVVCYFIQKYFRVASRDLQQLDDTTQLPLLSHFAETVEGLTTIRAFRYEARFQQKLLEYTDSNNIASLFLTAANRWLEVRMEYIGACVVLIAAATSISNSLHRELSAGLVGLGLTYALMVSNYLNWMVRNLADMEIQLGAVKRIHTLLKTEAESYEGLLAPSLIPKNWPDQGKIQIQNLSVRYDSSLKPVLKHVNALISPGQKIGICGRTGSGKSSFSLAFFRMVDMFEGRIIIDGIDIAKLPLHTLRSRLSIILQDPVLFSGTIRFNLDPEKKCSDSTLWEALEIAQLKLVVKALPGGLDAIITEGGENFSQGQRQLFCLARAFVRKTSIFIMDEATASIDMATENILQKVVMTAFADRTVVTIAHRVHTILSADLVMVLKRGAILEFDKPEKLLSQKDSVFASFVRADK
# Sequence (P70673 whole entry partner): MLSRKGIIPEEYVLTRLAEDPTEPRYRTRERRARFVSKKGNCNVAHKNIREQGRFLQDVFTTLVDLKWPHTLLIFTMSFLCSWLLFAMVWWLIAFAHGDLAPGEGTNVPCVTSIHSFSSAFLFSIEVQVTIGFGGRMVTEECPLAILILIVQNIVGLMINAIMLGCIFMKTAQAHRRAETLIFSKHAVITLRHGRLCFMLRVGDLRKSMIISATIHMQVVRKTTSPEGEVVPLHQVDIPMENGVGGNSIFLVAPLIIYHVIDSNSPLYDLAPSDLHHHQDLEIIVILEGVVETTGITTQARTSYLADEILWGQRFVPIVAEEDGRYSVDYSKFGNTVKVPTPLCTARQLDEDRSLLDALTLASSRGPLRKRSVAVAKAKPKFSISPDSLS
# ASSAY EXPLANATION: KATP channel receptor binding assay ([3H]glibenclamide)
# CONDITION INFO: Table 1; 10 μM compound concentration; [3H]glibenclamide 0.1 nM, rat cerebral cortex; read-out: K^+ATP Channel (% Inhibition of Control Specific Binding)
# key: entry, value: inhibition at 10 µM

[
  {
    "COMPOUND": "O=C(Nc1ccc(N2CCN(C(=O)OC3CCOC3)CC2)c(F)c1)N1CCN(C(=O)c2cccc(F)c2)CC1 (racemic)",
    "UNIT SYMBOL": "%",
    "inhibition at 10 µM": 15
  },
  {
    "COMPOUND": "O=C(Nc1cc(C(F)(F)F)ccc1Cl)N1CCN(C(=O)c2ccco2)CC1 [Compound III, reference compound]",
    "UNIT SYMBOL": "%",
    "inhibition at 10 µM": -8
  },
  {
    "COMPOUND": "O=C(c1ccco1)N1CCN(C(=S)Nc2cc(Cl)cc(Cl)c2)CC1 [Compound IV, reference compound]",
    "UNIT SYMBOL": "%",
    "inhibition at 10 µM": -7
  }
]

----------
# EXPERIMENTAL TARGET: human Prostaglandin D Synthase (GST2) (Homo sapiens)
# Construct: the open reading frame of human Prostaglandin D Synthase was amplified from cDNA; made in house; host or cells: E. coli TOP10F'
# ASSAY EXPLANATION: Homogeneous biochemical assay of human Prostaglandin D Synthase (GST2) based on its glutathion-S-transferase activity (GSH conjugation to monochlorobimane, fluorescence)
# CONDITION INFO: given beside the compound name in Examples 1 to 167; read-out: Potency Range (GST2 IC50)
pIC50: −log10 of the molar value.
ENDPOINT: pIC50

[
  {
    "COMPOUND": "CN(C)c1ccc(NC(=S)N2CCN(C(=O)c3ccccc3)CC2)cc1 [Compound 2]",
    "OBS VALUE": "8.00 to 9.00"
  },
  {
    "COMPOUND": "COC(=O)c1cccc(NC(=O)N2CCN(C(=O)c3cccc(F)c3)CC2)c1 [Compound 34]",
    "OBS VALUE": "7.00 to 7.96"
  },
  {
    "COMPOUND": "Cc1ccccc1C(=O)N1CCN(C(=S)Nc2ccc(N3CCOCC3)nc2)CC1 [Compound 152]",
    "OBS VALUE": "7.00 to 7.96"
  },
  {
    "COMPOUND": "O=C(Nc1ccc(N2CCOCC2)c(F)c1)N1CCN(C(=O)c2cccc(F)c2)CC1 [Compound 41]",
    "OBS VALUE": "7.00 to 7.96"
  },
  {
    "COMPOUND": "O=C(c1cccc(F)n1)N1CCN(C(=S)Nc2ccc(C(F)(F)F)cc2)CC1 [Compound 20]",
    "OBS VALUE": "6.00 to 7.00"
  },
  {
    "COMPOUND": "CC(C)(C)OC(=O)N1CCN(c2ccc(NC(=O)N3CCN(C(=O)c4cc(F)ccc4F)CC3)cc2F)CC1 [Compound 48]",
    "OBS VALUE": "6.00 to 7.00"
  },
  {
    "COMPOUND": "O=C(Nc1ccc(-n2cncn2)c(F)c1)N1CCN(C(=O)c2cccc(F)c2)CC1 [Compound 145]",
    "OBS VALUE": "6.00 to 7.00"
  },
  {
    "COMPOUND": "O=C(Nc1ccc(NC(=O)N2CCN(C(=O)c3cc(F)ccc3F)CC2)cc1)c1ccc[n+]([O-])c1 [Compound 119]",
    "OBS VALUE": "7.00 to 7.96"
  }
]

Data credit: patent US20100234377A1
